Data origin: the RNAGym collection of RNA variant scans (doi:10.7554/elife.90254)

B1: LINE1-full (parent)
chain: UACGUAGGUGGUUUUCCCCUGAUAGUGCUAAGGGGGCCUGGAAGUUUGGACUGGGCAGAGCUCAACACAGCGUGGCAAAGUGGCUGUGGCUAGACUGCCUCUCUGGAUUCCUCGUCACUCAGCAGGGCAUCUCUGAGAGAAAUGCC

Variants of: B1
Assay: self-cleavage, relative activity (ratio to wild type); higher = more cleavage; in vitro, sequencing; the parent is a self-cleaving ribozyme
Here the recorded self-cleavage is given for each entry.
Keep the answer to the number alone.

Study these solved cases before continuing.
U23C A140C; 1.35
U46C U115G; 0
A64U C123U; 0.41

INPUT: For A59G A64G , what is its reported self-cleavage?
OUTPUT: 0.06

INPUT: # repeat for G72C A94G
OUTPUT: 0.18

INPUT: # repeat for A64G U115C
OUTPUT: 0.27

INPUT: # repeat for C18U U87A
OUTPUT: 0.08

INPUT: # repeat for A67G U132C
OUTPUT: 0.62

INPUT: # repeat for C28U U119C
OUTPUT: 1.12

INPUT: # repeat for U85C A141G
OUTPUT: 0.16

INPUT: # repeat for U47C A121G
OUTPUT: 1.92
